Test: yeast display, Sf9 membrane polyspecificity reagent, FACS + sequencing; frameworks hold sequencing errors
measured_parameter: polyreactivity (PSR sort gate)

residue_sequence=QVQLVESGGGLVQAGGSLRLSCAASGRIFGWNAMGWYRQAPGKERELVASIRSGGRTNYADSVKGRFTISRDNAKNTVYLQMNSLKPEDTAVYYCAVGPYYQSTQIYDYWGQGTQVTVSS reported_measurement="low polyreactivity"
residue_sequence=QVQLVESGGGLVQAGGSLRLSCAASGRIFVTYAMGWYRQEPGKERELVAAISASGGSTYSADSVKGRFTISRDNAKNTVYLQMNSLKPEDTAVYYCAASYRSSLRPWAEDGFWGQGTQVTVSS reported_measurement="high polyreactivity"
residue_sequence=QVQLVESGGRLVQAGGSLRLSCAASGSTFRKYAMGWYIQAPGKERELVASISRGGTTYYADSVKGRFTISRDNAKNTVYLQMNSLKPEDTAVYYCNKASYRWYWGYLDYYYWGQGTQVTVSS reported_measurement="high polyreactivity"
residue_sequence=QVQHVESGGGLVQAGGSLRLSCAASGNTFLRYAMGWYIKAPGKERELVAAISRSGGSTYYADSVKGRFTISRDTAKNTVYLQMNSLKPEDTAVYYCAARRSSQPDKGYYYWGQGTQVTVSS reported_measurement="high polyreactivity"
residue_sequence=QVQLVESGGGLVQAGGSLRLSCAASGGTFPWYTMGWYRQAPGKERELFAAISWRGGRTYYADSVKGRFTISRDNAKNTVYLQMNSLKPEDTAVYYCAATPRYRVYYGSYYLRYDYWGQGTQVTVSS reported_measurement="high polyreactivity"
residue_sequence=QVQLVESGGGIVQAGGSLRLICAASGFIFEFNVMGWYRQSPGKERQLVAAISRSGGSTYYADSVKGRFTISRDNAKNTVYLQMISLKPEDSAVYYCAARSYRSGTHGYNYWGQGTQVTVSS reported_measurement="high polyreactivity"
residue_sequence=QVQLVESGGCLVQAGGSLRYSCAASGRTFRYYGMGWYRQAPGKERELVAAISWSGGSTYYADSVKGRFTISRDNAKNTVYLQMNSLKPEDTAVYYCKVAFHWQRFHHKSAAYDYWGQGTQVTVSS reported_measurement="high polyreactivity"
residue_sequence=QVQLVESGGGLVQAGGSLRLICAASGFTFPVYARGWYRQAPGKERELVAAISSSGGTTYYADSVKGRFTISRDNAKNTVYLQMISLKPEDTAVYYCNAYYGSTAYGYDYWGQGTQVTVSS reported_measurement="low polyreactivity"

Below are 3 sequences. Give each one its polyreactivity (PSR sort gate).
1. QVQLVESGGGLVQAGGSLRLSCAASGFISGYYTMRWYRQAPGKERELVAVINSGGSTYYADSVKGRFTISRDNAKNTVYFQMNSLKPEDTAVYYCAKLGGKYSRYYYWGHGTQVTVSS
2. QVQLVESGGGLVQAGGSLRLSCAASGRIFSGYAMGWYRQAPGKERELVAAISGGGSTNYADSVKGRFTISRDNAKNTVYLQMNSLKPEDTAVYYCATQYGHYPYWLYKYDYWGQGTQVTVSS
3. QVQLVESGGGLVQAGGSLRLSCAASGFIFFAYAMGWYRQAPGKERELVAAISRTGGSTYYADSVKGRFTISRDNAKNTVYLQMNSLKPEDTAVYYCARPKYAWSYSRGNYWGQGTQVTVSS

Response:
1: low polyreactivity; 2: low polyreactivity; 3: high polyreactivity

====

Test: yeast display, Sf9 membrane polyspecificity reagent, FACS + sequencing; frameworks hold sequencing errors
measured_parameter: polyreactivity (PSR sort gate)

residue_sequence=QVQLVESGGGLVQAGGSLRLSCAASGLTFDANAMGWYIQAPGKEREFVAVISWSDGGTYYADSVKGRFTISRDNAKNTVYLQLNSLKPEDTAVYYCNADFYYVYGNTRRYRYFEMEYWGQGTQVTVSS reported_measurement="low polyreactivity"
residue_sequence=QVQLVESGGGLVQAGGSLRLSCAASGYTFPLYAMGLYRQAPGKEWELVADINIGGASTYYADSVKGRFTISRDHAKNTVYLQMNSLKPEDTAVYYCAKEYYDGYFPTFDYDYWGQGTQVTGSS reported_measurement="low polyreactivity"

====

Assay: yeast display, Sf9 membrane polyspecificity reagent, FACS + sequencing; frameworks hold sequencing errors
measured_parameter: polyreactivity (PSR sort gate)

residue_sequence=QVQLVESGGGLVQAGGSLRLSCAASGSIFASYVMGWYRQAPGKERELVAAITSRGTSTYYADSVKGRFTISRDNAKNTVYLHMNSLNPEDTAVYYCAARLYGSAPQHEYWGQGTQVTVSS reported_measurement="low polyreactivity"
residue_sequence=KVQLVESGGGLVQAGGSLRLSCAASGSTFRTYAMGWYRQAPGKERELVADITWRGGSTYYADSVKGRFTISRDNAKNTDYFQMNSLKPEDTAVYYCATDRGPEVVLYVYWGQGTQVTVSS reported_measurement="low polyreactivity"

====

Assay: yeast display, Sf9 membrane polyspecificity reagent, FACS + sequencing; frameworks hold sequencing errors
measured_parameter: polyreactivity (PSR sort gate)

Answered examples (4):
residue_sequence=QVQLVESGGGLVQAGGSLRLSCAASGRIFAHYAMGWYRQAPGKEREMVAAISRRGGSTYYAESVKGRFTISRDNAKNTVYLQMNRLKPEDTAVYYCNAVTRSSLSWFFGYDYWGQGTQVTVSS reported_measurement="high polyreactivity"
residue_sequence=QVQLVESGGGLVQAGGSLRLSCAGYGSIFWWYPMVWYRQAPGKERELVASISWSGTSTYYADSVKGRFTISRDNAKNTVYLQMNSLKPEDTAVYYCNADVYWPGTPYTHDYWGQGTQVTVSS reported_measurement="low polyreactivity"
residue_sequence=QDQLVESGGGLVQAGGSLRLSCAASGLTFQYNTMGWYRQAPGKERELVARINWGGDSTYYADSVKGRFTISRDNAKNTVYLQLYSLKPEVTAVYYCAAPGYSGRYGYYTYYLYVYWGQGTQVTVSS reported_measurement="low polyreactivity"
residue_sequence=QVQLVESGGGLVQAGGSLRLSCAASGSIFWYYAMGWYRQAPGKERELVATIRKRSGSTYYADSVKGRFTISRDNAKNTVYLQMNSLKPEDTAVYYCAADYTAYGYDYWGQGTQVTVSS reported_measurement="low polyreactivity"

Turning now to a further sequence:
Request: # query: polyreactivity (PSR sort gate) of entry "QVQLVESGGGLVQAGGSLRLSCAASGSIFVKYAMGWYRQATGKERELVASITGRGGSTYYADSVKGRFTISRDNAKNTVYFQMNSLIPEDTAVYYCAARVASRHGWHNYWGQGTQVTVSS"
Response: high polyreactivity

====

Assay: yeast display, Sf9 membrane polyspecificity reagent, FACS + sequencing; frameworks hold sequencing errors
measured_parameter: polyreactivity (PSR sort gate)

residue_sequence=QVQLVESGGGLVQAGGSLRLSSAASGFILDTNAMGWYRQAPGKERELVSAITKRGIRTYYADSVKGRFTISRDNAQNTVYLQMNSLKPEDTAVYYCNAQRPIATVWHRYDSWGQGTQVTVSS reported_measurement="high polyreactivity"
residue_sequence=QVQLVESGGGLVQAGGSLRLSCAASGSTLVPNAMGWYRQAPGKERELVATISFSSGRTYYADSVKGRFTISRDNAKNTVYLQMNSLKPEDTAVYYCNARSFGPTESRYDYWGQGTQVTVSS reported_measurement="high polyreactivity"
residue_sequence=QVQLVESGGALDQAGGSLRLSCAASGSTFISNAMGWYRQAPGKERELVAAISSGGGRTSYADSVKGRFTISRDNANNTVYLQMNSLKPEDTAVYYCNTKKLPYAEGYWGQGTQVTVSS reported_measurement="low polyreactivity"
residue_sequence=QVHLVESGGGLVQAGGSLRLSCAASGRGYYALGWYRQAPGKERELVAAISRGGNTKYADSVKGRFTISRDNAKNSVYLQMNSLKPEDTAVYYCAAYAYSYELYYWGQGTQVTVSS reported_measurement="high polyreactivity"

Request: # query: polyreactivity (PSR sort gate) of entry "QVQLVESGGGLDQAGGSLRLSCAASGSIFGRNAMRWYRQAPGKERELVAAITGYTYYADSVKGRFTISRDNAKNTVYLQMNSLKPEDTAVYYINADHDVGWTYDTEYNYWGQGTQVTVSS"
Response: low polyreactivity

====

Assay: yeast display, Sf9 membrane polyspecificity reagent, FACS + sequencing; frameworks hold sequencing errors
measured_parameter: polyreactivity (PSR sort gate)

Answered examples (6):
residue_sequence=QVQLVESGGGLVQAGGSLRLSCAASGLIFSSYAMGWYRQAPGKEREFVAAINYNGGRTYYADSVKGRFTISRDNAKNTVYLQMNSLKPEDTAVYYCDGRYGSGGDYWGQGTQVTVSS measured_parameter="polyreactivity (PSR sort gate)" reported_measurement="low polyreactivity"
residue_sequence=QVQLVESGGGLVQAGGSLRLSCAASGRTIVYNAMGWYRQAPGKERELVAAITSRGGSTHYADSVKGRFTISRDNAKNTVYLQMNSLKPEDTAVYYCAADFLSPAYRPSWYRFDYWGQGTQVTVSS measured_parameter="polyreactivity (PSR sort gate)" reported_measurement="low polyreactivity"
residue_sequence=QVQLVESGGGLVQAGGSLRLSCAASGRIFAFNAMGWYRQAPGKERELVADITSSGVNTYYADSVKGRFTISRDNAKNTVYLQMNSLKPEDTAVYYCAARSYLRWWVGMEYWGQGTQVTVSS measured_parameter="polyreactivity (PSR sort gate)" reported_measurement="low polyreactivity"
residue_sequence=QVQLVESGRGLVQAGGSLRLSCAASGSTINYKAMGWYRQAPGKERELVAAIDSGVSTNYADSVKGLFTISRDHAKNTVYLQMNSLKPEDTAVYYCNADPDYFDYWGQGTQVTVSS measured_parameter="polyreactivity (PSR sort gate)" reported_measurement="low polyreactivity"
residue_sequence=QVQLVESGGGLVQAGGSLRLTCAASVSTIAGNAMGWYRQAPGKERELVAVITRVGSTNYADSVKGRFTISRDNAKNTVYLQMKSLKPEDTEVYYCARYGFLLDYWRGGYYWGQGTQVTVSS measured_parameter="polyreactivity (PSR sort gate)" reported_measurement="high polyreactivity"
residue_sequence=QVQLVESGGGLVQAGGSLRLSCAASGSTFNKYAMGWYRQAPGKEREFVAAITSSGGRTYYADSVKGRFTISRDNAKNTVYLQMNSLKPEDTAVYYCAARSYTYTAPIYGYWGQGTQVTVSS measured_parameter="polyreactivity (PSR sort gate)" reported_measurement="high polyreactivity"

Below are 7 sequences. Give each one its polyreactivity (PSR sort gate).
1. QVQLVESGGGLVQAGGSLRLSCAASGYTFTSNDMGWYRQAPGKERELVAAITWSGGTTYYADSVKGRFTISRDNAKNTVYLQMNSLKPEDTAVYYCAAESTLPIIDRDDYWGQGTQVTVSS
2. QVQLQESGGGLVQAGGSLRLSSAASGTISPLPAMGWYRHAPGKEREFVAGIDTGAIHNYADSVKGRFTIRRDNAKNTVYLQMNSLKPEDTAVYYCAVFPAAYEYYERYYTYWGQGTQVTVSS
3. QVQHVESGGGLVQAGGSLRLSCAASGSTFDVYALGWDRQAPGKERELVAAISESGSSTYYADSVKGRFTISRDNAKHTVYLQMNSLKPEDTAVYSCNALYYDWHPEYQVIFSYFYYWGQGTQVTVSS
4. QVQLVESGGGLVQAGGSLRLSCAASGIIFVLYDMGWYRPAPGKERELVAAIDKSGGSTYYADSVKGRFTISRDNAKNTVYLQMNSLKPEDTAVYYCNARVVWRNPSYLKSSYDYWGQGTQVTVSS
5. QVHLVESGGGLVQAGGILLLSCAASGYDMGWYRQAPGKERELVAAISRGGSTSYADSVKGRFTISRDNAKNTVYLQMNSLKPEDTAVYYCAARYGSYRVGYDYWGQGTQVTVSS
6. QVQLVESGGGLVQAGGSLRLSCAASGFIIGSYTMGWNRQAPRKERELVASITKRGGSTYYADSVKGRFTISRDNAKNTVYLQMNSLKPEDTEVYYCAATYLFSHRSRYDYWGQGTQVTVSS
7. QVQLVESGGGLVQAGGSLRLSCAASGSIFVKNAMGWYRQAPGKERELVATISRRGGSTYYADSVKGRFTISRDNAKNTVYLQMNSLKPEDTAVYYCNRLGTTVSLEYYYWGQGTQVTVSS

Response:
low polyreactivity
low polyreactivity
low polyreactivity
low polyreactivity
low polyreactivity
high polyreactivity
high polyreactivity

Below are 7 sequences. Give each one its polyreactivity (PSR sort gate).
1. QVQLVESGGGLVQAGGSLRLSCAASGRILYSYPMGGYRQAPGKERELVASISLSGGRTYADSVKGRFTISRDNAKNTVFLQMNSLKPVDTAVYYCNARIRTSRYLWPFDYWGQGTQVTVSS
2. QVQLVESGGGLVQAGGSLRVSCAASGRIFILNTMGCYRQAPGKETELVAGISYSGSTYYADSVKGRFTISRDNAKNTVYLQMNSLKPEATAVYYCAAEYDAAWYNEGYYYWGQGTQVTVSS
3. QVQLVESGGGLVQAGGSLRLTCAASGIYFTDYAMGWYRQAPGKERELVAAISGIGSTTYYADSVKGRFTISRDNAKNTVYLQMNSLKPEDTAVYYCNALLAYTYWYDYWGQGTQVSVSS
4. QVQLVESGGGLVQAGGSLRLSCAASGRISYGYAMGWYRQAPGKERELVAAISRSGGTTYYADSVKGRFTISRDNAKNTVYLQMNSLKPEDTAVYYCNRVWYATDFVNTMGYWGQGTQVTVSS
5. QVLLQESGGGLVEAGGSLRLSCAASGTISTDIRMGWYRLAPGKEREFVASIDGGSTTYYADSVKGRFTISRDNAKNTVYLQMNSLKPQDTAMYYCAAGEATEFYLYYWGQGTQVTVSS
6. QVQLVESGGGLVQAGGSLRLSCAASGSIFARNAMGSYRQAPGKERELVAAITVRGRTNYADSVKGRFTISRDNAKNTVYLQMNSLKPDDTAVYYCAASLWDDDSRLMYYWGQGTQVTVSS
7. QDQLVESVGGLVQAGVSLRLSCAASGGTFDVNAMGWYRQATGKERELVATISGGGSTNYADSVKGRFTISRDNAKNTVYLQMNSLKPEETAVYYCAAESEPIRNRERDYWGQGTQVTVSS

Response:
1: high polyreactivity; 2: low polyreactivity; 3: high polyreactivity; 4: low polyreactivity; 5: low polyreactivity; 6: high polyreactivity; 7: low polyreactivity

Request: # query: polyreactivity (PSR sort gate) of entry "QVQLVESGGGLVQAGGSLRLICAASGSIFSTYTMGWYRQAPGKERELVAAITRSGGSTYYADSVKGRFTISRDNAKNTVYLQMNSLKPEDTAVYYCAAKGKRLRSYYQRYYYWGQGTQVTVSS"
Response: high polyreactivity

Origin of measurements: the nanobody polyreactivity screen of Harvey et al. (2022)
